These data points were gathered from the supplement of paper PMC4862054.

# drug sensitivity score annotations
Tested on: MCF-10A
Assay: drug sensitivity score (DSS), CellTox Green (DSS (AUC-based score)); higher = stronger drug effect (viability inhibition or cytotoxicity); extreme values may be limits of the assay
Settings: incubation time: 72 h
Reported Metric: drug sensitivity score

CNC(=O)c1cc(Oc2ccc(NC(=O)Nc3ccc(Cl)c(C(F)(F)F)c3)c(F)c2)ccn1 [Regorafenib] = 0
O=C(Nc1ccncc1)C(=O)c1cn(Cc2ccc(Cl)cc2)c2ccccc12 [Indibulin] = 0
C=C1C[C@@H]2[C@H](CC[C@]3(C)C(=O)CC[C@@H]23)[C@@]2(C)C=CC(=O)C=C12 [Exemestane] = 0
COc1cc(O)c2c(c1)/C=C/C[C@H](O)[C@H](O)C(=O)/C=C\C[C@H](C)OC2=O [(5Z)-7-Oxozeaenol] = 0
CCOC(=O)CCNc1cc(N2CCc3ccccc3CC2)nc(-c2ccccn2)n1 [GSK-J4] = 8.52
O=C(Nc1cccnc1)N1CCC(Cc2cccc(Oc3ccc(C(F)(F)F)cn3)c2)CC1 [PF-3845] = 0
CNC(=O)c1cccc(-c2ccc3c(N4CCOC[C@@H]4C)nc(N4CCOC[C@@H]4C)nc3n2)c1 [AZD2014] = 0
CC(C)C[C@@H](C(=O)N[C@H](C(=O)OC1CCCC1)c1ccccc1)[C@H](O)C(=O)NO [Tosedostat] = 0
O=P1(N(CCCl)CCCl)NCCCO1 (centres undefined) [Cyclophosphamide] = 0
CNC(=O)c1ccc(N2C(=S)N(c3ccc(C#N)c(C(F)(F)F)c3)C(=O)C23CCC3)cc1F [RD162] = 0
O=C(/C=C/c1cccc(S(=O)(=O)Nc2ccccc2)c1)NO [Belinostat] = 10.5
Cc1ccc(NC(=O)c2ccc(CN3CCN(C)CC3)cc2)cc1Nc1nc(-c2cccnc2)cs1 [Masitinib] = 0
NC(=O)c1ccc(I)c([N+](=O)[O-])c1 [Iniparib] = 1.4
CCc1c2c(nc3ccc(OC(=O)N4CCC(N5CCCCC5)CC4)cc13)-c1cc3c(c(=O)n1C2)COC(=O)[C@]3(O)CC [Irinotecan] = 0

* * *

# normalised response annotations
System: CAL-148
Assay: normalised response (% of control), CellTiter-Glo; higher = more viable cells (100 = DMSO, 0 = benzethonium chloride kill control)
Settings: incubation time: 72 h
Reported Metric: normalised response (%)

COCC[n+]1c2c(n(Cc3cnccn3)c1C)C(=O)c1ccccc1C2=O [YM155] (100 nM) = 0.53
O=C(Nc1cccnc1)N1CCC(Cc2cccc(Oc3ccc(C(F)(F)F)cn3)c2)CC1 [PF-3845] (100 nM) = 113
COc1cc(O)c2c(c1)/C=C/C[C@H](O)[C@H](O)C(=O)/C=C\C[C@H](C)OC2=O [(5Z)-7-Oxozeaenol] (100 nM) = 101
COc1cc2ncnc(Nc3ccc(F)c(Cl)c3)c2cc1OCCCN1CCOCC1 [Gefitinib] (100 nM) = 113
Cc1ccc(NC(=O)c2ccc(CN3CCN(C)CC3)cc2)cc1Nc1nc(-c2cccnc2)cs1 [Masitinib] (100 nM) = 106
CNC(=O)c1cccc(-c2ccc3c(N4CCOC[C@@H]4C)nc(N4CCOC[C@@H]4C)nc3n2)c1 [AZD2014] (100 nM) = 85.6
CN(C)CCOc1ccc(/C(=C(/CCCl)c2ccccc2)c2ccccc2)cc1 [Toremifene] (100 nM) = 109
Cc1cc(Nc2cc(CN3CCOCC3)c3nc(C)c(Cc4ccc(Cl)cc4F)n3n2)n[nH]1 [Gandotinib] (100 nM) = 105
O=C(Nc1ccncc1)C(=O)c1cn(Cc2ccc(Cl)cc2)c2ccccc12 [Indibulin] (100 nM) = 113
c1ccc2c(CCNc3ccc(Nc4ccncc4)cc3)c[nH]c2c1 [Serdemetan] (100 nM) = 91.8
